# SYSTEM NAME: Caspase-6 (Homo sapiens)
# Sequence (P55212 24-179 limits assumed): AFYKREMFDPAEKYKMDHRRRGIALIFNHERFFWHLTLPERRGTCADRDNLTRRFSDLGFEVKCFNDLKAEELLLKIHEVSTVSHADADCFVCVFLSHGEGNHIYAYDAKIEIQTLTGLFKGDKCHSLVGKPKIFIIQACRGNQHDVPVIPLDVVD
# Sequence (P55212 194-293 limits assumed): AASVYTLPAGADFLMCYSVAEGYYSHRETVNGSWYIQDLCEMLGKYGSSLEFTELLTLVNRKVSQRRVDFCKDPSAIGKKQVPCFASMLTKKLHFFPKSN
# ASSAY PROTOCOL: human caspase-6 inhibitors, dose response, biochemical, VEID-R110 fluorescence, cherry-pick (AID 720632)
The source made the active and inactive calls.
Collected AC50 values appear next to each entry.
RECORDED METRIC: AC50

molecule=CN(CC(=O)Nc1ccccc1Cl)C(=O)COC(=O)c1ccc([N+](=O)[O-])s1 recorded_metric=AC50 result="4.3 µM (active)"
molecule="CSc1ccc(CN2CCC(C)(Oc3cnc(Cl)c4ccccc34)C2)cc1 (stereo not drawn)" recorded_metric=AC50 result="46 µM (active)"
molecule=Cn1c2ccccc2c2cc(/C=N/NC(=O)c3cc(O)ccc3O)ccc21 recorded_metric=AC50 result="43.1 µM (active)"

* * *

Collected IC50 values appear next to each entry.
# SYSTEM NAME: Polyadenylate-binding protein 1 (Homo sapiens, UniProt P11940)
# Sequence (P11940 whole entry): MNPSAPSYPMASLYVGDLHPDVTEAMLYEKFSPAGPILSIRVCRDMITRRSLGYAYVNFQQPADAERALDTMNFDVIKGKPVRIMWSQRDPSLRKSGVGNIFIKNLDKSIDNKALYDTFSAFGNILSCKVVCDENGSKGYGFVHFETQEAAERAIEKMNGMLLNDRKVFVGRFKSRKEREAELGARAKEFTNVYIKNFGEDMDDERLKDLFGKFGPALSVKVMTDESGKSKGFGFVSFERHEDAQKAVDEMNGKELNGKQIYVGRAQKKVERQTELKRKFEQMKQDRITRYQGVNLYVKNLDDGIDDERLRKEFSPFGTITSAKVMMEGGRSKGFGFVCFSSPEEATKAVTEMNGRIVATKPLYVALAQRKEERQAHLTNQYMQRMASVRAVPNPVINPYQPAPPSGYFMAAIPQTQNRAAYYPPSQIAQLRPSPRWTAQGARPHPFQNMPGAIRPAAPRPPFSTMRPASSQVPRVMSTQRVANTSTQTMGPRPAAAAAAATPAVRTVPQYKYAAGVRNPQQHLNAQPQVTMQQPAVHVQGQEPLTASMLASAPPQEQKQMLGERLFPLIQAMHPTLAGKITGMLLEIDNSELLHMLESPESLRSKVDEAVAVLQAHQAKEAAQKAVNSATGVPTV
# ASSAY PROTOCOL: PABP1 MLLE–PAM2 binding inhibitor potency, dose response, biochemical, fluorescence polarization, FITC-PAM2 peptide (AID 602259)
# Format: functional
# MEASUREMENT CONDITIONS: read-out: IC50_Mean
Activity calls are given as the source filed them.
RECORDED METRIC: IC50

molecular_string=Fc1ccc(-c2ccnc(S)n2)cc1 result="> 66 µM (inactive)"
molecular_string=CC1CCN(C(=S)c2ccc([N+](=O)[O-])cc2)CC1 result="> 66 µM (inactive)"
molecular_string=CC(=O)Nc1ccc2nc3ccccc3nc2c1 result="44.9 µM (inactive)"
molecular_string=Cc1cccc(C)c1NC(=S)Nc1ccc(F)cc1 result="> 66 µM (inactive)"
molecular_string=CCn1c(CSc2nccn2C)nc2cc(C(=O)O)ccc21 result="36.7 µM (inactive)"

* * *

Collected AC50 values appear next to each entry.
# SYSTEM NAME: Paired box protein Pax-8 (Homo sapiens)
# Sequence (Q06710 whole entry): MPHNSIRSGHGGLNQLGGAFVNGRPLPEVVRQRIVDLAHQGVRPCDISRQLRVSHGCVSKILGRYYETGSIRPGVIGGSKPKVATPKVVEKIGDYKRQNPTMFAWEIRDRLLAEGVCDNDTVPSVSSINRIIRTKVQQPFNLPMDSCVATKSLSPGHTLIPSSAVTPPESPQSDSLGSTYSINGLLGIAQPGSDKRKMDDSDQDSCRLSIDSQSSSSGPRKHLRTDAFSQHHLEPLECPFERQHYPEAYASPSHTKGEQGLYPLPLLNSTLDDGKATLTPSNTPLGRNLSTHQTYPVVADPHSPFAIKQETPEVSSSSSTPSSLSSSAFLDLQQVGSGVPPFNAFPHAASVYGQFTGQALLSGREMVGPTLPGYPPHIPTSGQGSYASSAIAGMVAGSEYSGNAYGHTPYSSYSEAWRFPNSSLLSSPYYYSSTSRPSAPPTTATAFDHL
# ASSAY PROTOCOL: inhibitors of PAX8-driven TPO luciferase reporter, dose response, RMG-I cells, cherry-pick (AID 687027);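 further: luciferase reporter driven by Pax8 target thyroperoxidase promoter measured by SteadyGlo luminescence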
# Type: functional, cell-based
Calls of active or inactive are those of the source.
RECORDED METRIC: AC50

molecular_string=C[C@@H]1CN([C@@H](C)CO)S(=O)(=O)c2ccc(C#Cc3ccncc3)cc2O[C@H]1CN(C)C(=O)Nc1ccc2c(c1)OCO2 system_name="Paired box protein Pax-8 (Homo sapiens)" recorded_metric=AC50 result="2.44 µM (active)"
molecular_string=C[C@@H]1CCCCO[C@@H](CN(C)S(=O)(=O)c2cccs2)[C@H](C)CN([C@H](C)CO)C(=O)c2cc(NC(=O)Nc3ccc(C(F)(F)F)cc3)ccc2O1 system_name="Paired box protein Pax-8 (Homo sapiens)" recorded_metric=AC50 result="3.17 µM (active)"
molecular_string=C[C@H]1CCCCO[C@H](CN(C)Cc2ccc(C(F)(F)F)cc2)[C@@H](C)CN([C@@H](C)CO)C(=O)c2cc(NS(=O)(=O)c3ccc(F)cc3)ccc2O1 system_name="Paired box protein Pax-8 (Homo sapiens)" recorded_metric=AC50 result="9.73 µM (active)"
molecular_string=C[C@@H]1CCCCO[C@@H](CN(C)Cc2ccc(Cl)c(Cl)c2)[C@H](C)CN([C@@H](C)CO)C(=O)c2cc(NC(=O)CCC(F)(F)F)ccc2O1 system_name="Paired box protein Pax-8 (Homo sapiens)" recorded_metric=AC50 result="9.32 µM (active)"
molecular_string=CC(=O)Nc1ccc(NC(=O)c2nc(S(=O)(=O)Cc3ccccc3)ncc2Cl)cc1 system_name="Paired box protein Pax-8 (Homo sapiens)" recorded_metric=AC50 result="9.86 µM (active)"
molecular_string=COc1cccc(S(=O)(=O)Nc2ccc3c(c2)[C@H]2C[C@H](CC(=O)NCc4ccccc4F)O[C@H](CO)[C@H]2O3)c1 system_name="Paired box protein Pax-8 (Homo sapiens)" recorded_metric=AC50 result="16.1 µM (active)"
